Test: Plasma clearance in rat
Format: ADME, organism-based
property label: clearance (mL/min/kg)
Give bare numbers, in mL/min/kg.

Input line: Endpoint output: clearance of Cc1nc(O[C@H]2C(C)(C)[C@H](NC(=O)c3cnc4ncccn34)C2(C)C)ccc1C#N . Value?
Output line: 11.6
